- Tested on: RARg homodimer (NR concentration 270 nM)
- assay explanation: PBM binding z-score (relative to random genomic background probes); higher = stronger binding; sequences stand for … in GC…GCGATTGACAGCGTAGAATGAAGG
parameter: PBM binding z-score

Requested field: PBM binding z-score. Item: `TGAATGAGGTTATAAGATCAGAGAACGTTGCAAA`
0.985

And the next one, `GGAACGAGTGCAAGTTGATAGCAGAGTTTGATGG` ?
0.227

And the next one, `AATACATGGTCATCGTAGGCCAGAGTACGCACAG` ?
1.26

And the next one, `CCAGTCAGGTGAGAAGGTAACTCAGCCTCGATTA` ?
0.321

And the next one, `AGAATGAGGTTATAGGTAGATCAGGGAAGAAAGT` ?
1.08

And the next one, `AATCAAAGTTCACTAGGTAACGTAAGATTCAGCT` ?
4.91

And the next one, `AGTCAAAGTTCGCTAGGTAACGTAAGATTCAGCT` ?
1.49

And the next one, `TCGAGTAGGTTAGGGGCAATCAGAATGGCGTCGA` ?
0.315

And the next one, `CGAACGAGCGCATGAGTTGATAGCAAATGCCGAT` ?
-0.247

And the next one, `GCGACTGGCGCATCAGCAGGTTACCATAACTTAA` ?
-0.547

And the next one, `CCTACTGGGCCAGTCAGAGGTCATTGATCATATG` ?
2.79

And the next one, `CATAGCAGGCCAGGGTCACTCAAGCATTTCGCTT` ?
2.89

And the next one, `TGTCAAAGTGCAAAGGTAACGTAAGTATCCACAC` ?
1.78

And the next one, `ACTTACGGGTCAACGAGGATATAGCACGCGTATA` ?
4.72

And the next one, `TCTAGTTGGTCACGGCGGTCACACACGACGGGTA` ?
2.76

And the next one, `ACTCGGAGGACAAAGGTCAGAGCGACGCCAGTGA` ?
5.38

And the next one, `ATATATAGGTTACATCCGGGTCATTCAGGCTATG` ?
2.64

And the next one, `CCGCCTAGGTCAGGGCCAGTATAGGAGGAACGTT` ?
3.33

And the next one, `CCTAGCAGGCCAGGGACACTCAAGCATTTCGCTT` ?
-0.144

And the next one, `CGTCCAAGGTCATAGGATGTCAGTGAAGACAGAT` ?
6.37

And the next one, `TCATATAGGTAATACAGGTCAAAGTCGGCATCTA` ?
2.37

And the next one, `GCATATAGGGAATACAAGGTGAAAGTCCGATTGT` ?
0.249

And the next one, `CAAACTCGGTCACCGGAAGGTCAAAGTCCGCATG` ?
6.29

And the next one, `CCTTACGGGTCACTGACAGGTTAAAGCATTTGGA` ?
5.25

And the next one, `TCTATAAGTTGATTAGGGCAACCGAAACAGCGGA` ?
0.741

And the next one, `GCTAGCAGGCTATTTGGGTCACTCAATGACGGGC` ?
0.795

And the next one, `ATATGTAGGTTATCGGGCCATTCAGTTTGCGCAT` ?
0.93

And the next one, `CGTCCAAGGTCAATGCTAGGTCAGGGAAAGCATT` ?
6.5

And the next one, `ACAGACAGGTGAGGGAAGGTAACTCAGCTGGACG` ?
0.526

And the next one, `GCGACTGGGGCATCGGCAGGTTACCATAACTTAA` ?
0.592

And the next one, `TAGACAGGGTCAAAGGCCAGAGTACGAATGTCGA` ?
4.86

* * *

- Tested on: RARa homodimer (NR concentration 270 nM)
- assay explanation: PBM binding z-score (relative to random genomic background probes); higher = stronger binding; sequences stand for … in GC…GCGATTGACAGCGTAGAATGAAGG
Each entry gets N if its PBM binding z-score stays under 0.5, and Y if its PBM binding z-score is 0.5 or above.

Test whether the sequence `CCTAGTTGGTCAAGGTCACAGACGCTATAGGTAC` records PBM binding z-score of 0.5 or higher.
Y

And the next one, `ACTAGCAGGCCAAGGGTCACTGAAGATTAGTCCG` ?
Y

And the next one, `TCTTGTAGATCAAGCAGGTTCAGAAAGCCTGAGT` ?
N

And the next one, `TTACCAAGGTGAAAGCTCGTTGATGCACGCCTTG` ?
N

And the next one, `GCTAGTTGGGCAGTAAAAGGTCACACACCGGTCG` ?
Y

And the next one, `TCTTGTTGATCAATAGAGGTTAAGAAAGTGCGCT` ?
Y

And the next one, `GGGACTGGGGCAAAGCAGGTTACCATAAGGTTGG` ?
N

And the next one, `CTCGAAAAGTCGGTTGAGGTGAGTATACGGATAA` ?
N

And the next one, `CGAACTAGGTCAGAACACGACAGTGAAGGATGAT` ?
Y

And the next one, `TCTATTAGTTGAAGGGTAACCGACGAGTCCGTTT` ?
Y

And the next one, `GCTATTAGTTGAAAGGGCAACCTAATGATTCTCG` ?
Y

And the next one, `CCGACTGGCGCATAAGGTTACCATAAGCCAGCCC` ?
N

And the next one, `ACAGACAGGTGATGAAGGAAACTCAGGCTATCAT` ?
N

And the next one, `AGATTGAGGTTATTAAGATCAGGGAATTGCGGTC` ?
Y

And the next one, `GCGACTCGGGCATCAGCAGGTTACCATAACTTAA` ?
N

And the next one, `TCTCGGAGAACACGAAGGTCAGAGCTTTCCAGAG` ?
N

And the next one, `CCTATTAGTTGACCATAAGTGCAACCGAAGCTCG` ?
Y

And the next one, `CGTCCACGGTCAATGCTAGGTCAGTGAAAGCATT` ?
N

And the next one, `AGAACGAGGGCAATGAGTTGCTAGCACGGGTGGC` ?
N

And the next one, `TATACAGGGTAAAAGGCCAGAGTACGAATGTCGA` ?
Y

And the next one, `CCTCGGAGGACAGGAGGTCAGAGCTGTCCGCTTT` ?
N

And the next one, `CCTCGGAGGACAACAGGAGCTCAGAGCTGCCAGA` ?
N

And the next one, `TCGAGTAGGCTAGTCGGGGCATTCAGCCAACATA` ?
N

And the next one, `ATCTCTAGGTAAAGATAGCTCAGTGAATGCAAAT` ?
Y

And the next one, `ATCTCTAGCTAAAAGTTCAGTGAATCCCGAGGAT` ?
Y

And the next one, `TCTCGGAAGACACGAAAGGTCAGAGCTCGACATC` ?
Y

And the next one, `TCTTGTAGATCAATAGAGGTTATGAAAGTGCGCT` ?
N

And the next one, `ATCTCTAGGAAAAGTTCAGTGAAAGATCGATAGA` ?
Y

* * *

For each record, write down the corresponding PBM binding z-score.
- Tested on: PXR homodimer (NR concentration 270 nM)
- assay explanation: PBM binding z-score (relative to random genomic background probes); higher = stronger binding; sequences stand for … in GC…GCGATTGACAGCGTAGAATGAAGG
The answer should be a number; do not append a unit.

Requested field: PBM binding z-score. Item: `TCTGCTAGGTCAGTTGGTTAGCTAACGAGCTGCC`
-0.819

And the next one, `ATCTCTAGGTCAAGTTCAGTGAAAGATCGATAGA` ?
2.13

And the next one, `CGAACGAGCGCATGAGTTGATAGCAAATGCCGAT` ?
-0.275

* * *

- System: THRa:RXRa (NR concentration 90 nM, RXRa partner concentration 90 nM)
- assay explanation: PBM binding z-score (relative to random genomic background probes); higher = stronger binding; sequences stand for … in GC…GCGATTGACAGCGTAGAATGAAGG
parameter: PBM binding z-score
The answer should be a number; do not append a unit.

Requested field: PBM binding z-score. Item: `GCTTGTAGATCAAGGTTAAGAACGACTAAGCTAA`
1.25

And the next one, `ACTAGTTGGTCAGCTGAGGTTACACACAATTCGG` ?
3.86

And the next one, `CGGCCAAGGTCAATGCTAGGTCAGTGAAAGCATT` ?
4.29

And the next one, `TCATATAGGTAATACAGGTGAAAGTCGGCATCTA` ?
1.1

And the next one, `TGAATGAGGTTGAAGATCAGGGAACGTGGCGTCG` ?
0.467

And the next one, `CCAGACAGGTGAGAAGGTACCTCAGCCTCGATTA` ?
0.0348

And the next one, `GCAGACAGGTGAAACGCAGGTAACTCCGGGTGGC` ?
1.32

And the next one, `ACAGACAGGTGAGAGAAGGTAACTCAGCTGGACG` ?
1.69

And the next one, `CTACCAAGGTGAACAAGGTGGTTGATTACTATTC` ?
1.7
